# TESTED SYSTEM: Human Polymorphonuclear Leukocyte Elastase (Homo sapiens)
# Construct: Crude extract of human polymorphonuclear leukocytes (PMN) containing elastase activity; endogenous in cells; host or cells: human polymorphonuclear leukocytes (crude extract)
# Sequence (P08246 30-247 limits assumed): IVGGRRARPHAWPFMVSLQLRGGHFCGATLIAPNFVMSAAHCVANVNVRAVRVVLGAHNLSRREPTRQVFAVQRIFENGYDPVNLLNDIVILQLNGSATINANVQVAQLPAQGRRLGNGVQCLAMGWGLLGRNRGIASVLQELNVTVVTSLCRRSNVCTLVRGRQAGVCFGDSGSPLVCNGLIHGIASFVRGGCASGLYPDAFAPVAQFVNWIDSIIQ
# METHOD DESCRIPTION: Enzyme assay for the inhibition of human polymorphonuclear leukocyte elastase via hydrolysis of N-t-Boc-alanyl-alanyl-prolylalanine-p-nitroanilide
# Format: biochemical
# TEST SETTINGS: Conc. 1 μg/ml; measured within 2 minutes; crude PMN extract, 0.2 mM Boc-AAPAN, pH 7.5
ASSAY READOUT: inhibition at 1 µg/mL (%)
Numbers only, in %.

// query Note inhibition at 1 µg/mL for the compound shown: CC(OC(=O)OCc1ccccc1[N+](=O)[O-])C1C(=O)N2C(C(=O)OCc3ccccc3[N+](=O)[O-])=CCC12 (stereo not shown)
// result 46

Take each entry in turn and give its inhibition at 1 µg/mL.
1. CC(OC(=O)OCc1ccccc1[N+](=O)[O-])C1C(=O)N2C(C(=O)OCc3ccccc3[N+](=O)[O-])=C(c3ccc(CN=[N+]=[N-])cc3)CC12 (stereo not shown)
2. CC(O)C1C(=O)N2C(C(=O)OCc3ccc([N+](=O)[O-])cc3)=C(Sc3ccncc3)CC12 (stereo not shown)
3. O=C(OCc1ccccc1)C1=C(SCc2ccccc2)CC2C(CO)C(=O)N12 (stereo not shown)

// result
[59, 72, 77]
